test system: NCI-H23 lung; assay: NCI-60 one-dose screen, 48 h (100 = growth as untreated, 0 = no growth, -100 = all killed); conditions: 10 µM unless noted
Compounds without any hit were thinned out: in the full panel of roughly 83,000, 20% have a hit.
TEST READOUT: growth (%)
Value expressed in %; do not type the unit.

Input line: Endpoint output: growth of `C=COC(=O)CCCCCCCCC` . Value?
Output line: 108

Input line: Endpoint output: growth of `CCOC(=O)c1cn2c3c(cccc3c1=O)C(=O)/C(=C/c1cccc(Cl)c1Cl)C2` . Value?
Output line: 93

Input line: Endpoint output: growth of C/C=C/C1=CN2C(=O)c3cc(OC4OC(C)C(NC)C(C)(O)C4O)c(C)cc3N=C[C@@H]2C1 (stereo not given in full) . Value?
Output line: -31.7

Input line: Endpoint output: growth of `NC(N)=Nc1nc2ccccc2o1` . Value?
Output line: 108

Input line: Endpoint output: growth of NC1N=C(SCC(=O)N2CCN(c3cc4c(cc3F)c(=O)c(C(=O)O)cn4C3CC3)CC2)NC(=O)/C1=C/c1ccc(Cl)cc1 (stereo not given) . Value?
Output line: 103

Input line: Endpoint output: growth of `C=CCn1cc(-c2nc3ccccc3s2)c2cc(-c3ccc4c5c(cccc35)C(=O)N(CCN3CCNCC3)C4=O)ccc21` . Value?
Output line: 86.3

Input line: Endpoint output: growth of `O=C(C1=Cc2cc3ccccc3n2Cc2cnnn21)c1ccccc1` . Value?
Output line: 73.6

Input line: Endpoint output: growth of `CC(C)(C)OC(=O)NCCc1ccc(N=C=S)cc1` . Value?
Output line: 81.4

Input line: Endpoint output: growth of `CCCCCCCC[C@@H](O)CC(=O)N[C@@H](CC(N)=O)C(=O)N[C@@H](CCC(N)=O)C(=O)N[C@@H](CC(=O)c1cc(C)cc(O)c1C(=O)c1c(O)cccc1O)CC(C)C` . Value?
Output line: 23.5

Input line: Endpoint output: growth of `C=C[C@@H]1C[C@H](O)Cc2ccccc2N1` . Value?
Output line: 104

Input line: Endpoint output: growth of `COc1cc(/C=C/C(=O)N2CCN(C(=O)/C=C/c3cc(OC)c(OC)c(OC)c3)CC2)cc(OC)c1OC` . Value?
Output line: 104

Input line: Endpoint output: growth of `COc1ccc(-c2ccc(-c3ccc(-c4ccc(C(=N)N)cc4)s3)s2)cc1OC` . Value?
Output line: 88.7

Input line: Endpoint output: growth of COc1ccc(C2NN=C3c4ccccc4CCC32)cc1 (stereo not given) . Value?
Output line: 67.7

Input line: Endpoint output: growth of `COc1ccc(NC(=O)CSc2nc(-c3ccc(OC)c(OC)c3)cc(-c3cc(OC)c(OC)c(OC)c3)n2)cc1` . Value?
Output line: 101

Input line: Endpoint output: growth of `COc1ccc(C(=O)n2nc(/C=C/c3ccc(O)c(OC)c3)cc2/C=C/c2ccc(O)c(OC)c2)cc1` . Value?
Output line: 7.96

Input line: Endpoint output: growth of `COc1cc(-c2nc(-c3nc4ccc(Cl)cc4[nH]3)cc3c2[nH]c2ccccc23)cc(OC)c1OC` . Value?
Output line: 71.5

Input line: Endpoint output: growth of `COc1cc(C(=O)/C=C/c2c(C)n([O-])c3ccc(C(F)(F)F)cc3[n+]2=O)cc(OC)c1OC` . Value?
Output line: 98.2

Input line: Endpoint output: growth of `CCCCCCCC/C=C/CCCCCCCC1=NC(C)(C)CN1C(C)(C)CO` . Value?
Output line: 44.7

Input line: Endpoint output: growth of `CCOC(=O)c1ccc2c(c1)c1c(C)c3cccnc3c(C)c1n2C` . Value?
Output line: 56.7

Input line: Endpoint output: growth of `N=C(N)c1ccc(-c2ccc(-c3ccc4ccccc4c3)s2)cc1` . Value?
Output line: 88.7

Input line: Endpoint output: growth of `COc1ccc(-c2nc(SCCC(C)C)nc(Nc3ccc(F)c(Cl)c3)c2C#N)cc1` . Value?
Output line: 90.2

Input line: Endpoint output: growth of `O=[N+]([O-])c1ccc(OCCCOc2ccccc2)cc1` . Value?
Output line: 102

Input line: Endpoint output: growth of `Nc1cccc(-c2nc3sccn3c2-c2ccnc(NCCNS(=O)(=O)c3ccc(C(F)(F)F)cc3)n2)c1` . Value?
Output line: 56

Input line: Endpoint output: growth of O=c1[nH]c2ccc(Br)cc2c2c1C(c1ccc(Cl)cc1)c1c(ncn3nc(-c4ccco4)nc13)O2 (stereo not given) . Value?
Output line: 76.1

Input line: Endpoint output: growth of `Cc1ccc2nc(-c3cc4c([nH]c5ccccc54)c(-c4ccc(F)c(F)c4)n3)[nH]c2c1` . Value?
Output line: 84.1

Input line: Endpoint output: growth of `COc1ccc(-c2nc(/C=N/Nc3cc(C)nc4ccc(Br)cc34)c(C)o2)cc1` . Value?
Output line: -41.9

Input line: Endpoint output: growth of `COc1ccc(-c2cc3c(OC)c(OC)c(OC)cc3oc2=O)cc1` . Value?
Output line: 59.1

Input line: Endpoint output: growth of `OCc1ncc(-c2ccccc2)s1` . Value?
Output line: 93.1

Input line: Endpoint output: growth of `Cc1ccc(S(=O)(=O)n2cc(C(=O)C(=O)N3CCOCC3)c3ccccc32)cc1` . Value?
Output line: 79.4

Input line: Endpoint output: growth of `CC(C)(C)Nc1c(-c2cccs2)nc2ncccn12` . Value?
Output line: 96.6

----------
test system: HOP-62 NSCLC; assay: NCI-60 one-dose screen, 48 h; settings: 10 µM unless noted
This is part of a sample that, as a whole, favours compounds with a hit. Of some 83,000 tested, about 20% had one in any assay. Calls of active or inactive are those of the source. How the source made its calls: active means growth percent below 10; inactive means the rest.
Your answer must be one of the following: 1 = active, 0 = inactive

Input line: Recorded call for `CCOC(=O)c1c(NS(=O)(=O)c2ccc(C)cc2)sc2c1CCC1(C2)OCCO1` ?
Output line: 0

Input line: Recorded call for CN(C)CC(C(=O)c1ccccc1)c1ccccc1 (centres undefined) ?
Output line: 0

Input line: Recorded call for CN1C(=O)N(C)C2C1NN=c1s/c(=C\C=C\c3ccccc3)c(=O)n12 (centres undefined) ?
Output line: 0

Input line: Recorded call for CCN(CC)CCC(CNc1c2ccc(Cl)cc2nc2ccc(OC)cc12)c1ccccc1 (centres undefined) ?
Output line: 1

Input line: Recorded call for `CCN(CC)c1ccc(CNc2ccnc3ccccc23)cc1` ?
Output line: 0

Input line: Recorded call for COc1ccc(OC)c(C2OC(c3ccc4ccccc4c3O)=NN2C(C)=O)c1 (centres undefined) ?
Output line: 0

Input line: Recorded call for `COc1ccc(Nc2nn3c(-c4ccccc4)cc(-c4ccccc4)nc3c2C(N)=O)c(OC)c1` ?
Output line: 0

Input line: Recorded call for `O=C(NCCCNc1nccc(-n2ccc3cccnc32)n1)c1c(F)cccc1F` ?
Output line: 0

Input line: Recorded call for `CC(C)C1=CC2=C(C=O)C[C@@H]3[C@](C)(CCC[C@@]3(C)C(=O)OCC#CCN3CCCC3)[C@H]2CC1` ?
Output line: 0

Input line: Recorded call for `COc1cc(Nc2nc(N[C@H]3CCCC[C@@H]3N)nc3cc[nH]c(=O)c23)cc(OC)c1` ?
Output line: 0

Input line: Recorded call for `COc1cc(-c2nn(-c3cccc(NC(=O)c4ccc(Cl)c(C(F)(F)F)c4)c3)cc2-c2ccncc2)ccc1Cl` ?
Output line: 0

Input line: Recorded call for `O=c1c2sc3ncccc3c2nnn1-c1ccccc1` ?
Output line: 0

Input line: Recorded call for `Cc1cc(N/N=C/c2nc(-c3ccccc3)oc2C)c2cc(Br)ccc2n1` ?
Output line: 0

Input line: Recorded call for NC(=S)N/N=C1\CCCC(C(F)(F)F)C1 (centres undefined) ?
Output line: 0

Input line: Recorded call for `COc1cccc(-c2nc3sccn3c2-c2ccnc(NCCCNS(=O)(=O)c3ccc(C(F)(F)F)cc3)c2)c1` ?
Output line: 0

Input line: Recorded call for `COc1ccccc1CNCCCN1C(=O)c2ccc3c4c(ccc(c24)C1=O)C(=O)N(CCCNCCCCNCCCN)C3=O` ?
Output line: 1

Input line: Recorded call for O=C1Nc2ccc(Cl)cc2C12Nc1cc(Cl)ccc1S2 (centres undefined) ?
Output line: 0

Input line: Recorded call for `Nc1cccc(Cl)c1N` ?
Output line: 0

Input line: Recorded call for `O=S(=O)(NCCCNc1nccc(-n2ccc3cccnc32)n1)c1ccc(Br)cc1` ?
Output line: 0

Input line: Recorded call for CCCCCCCCCCCCNC(=O)[C@H]1CSC(c2ccsc2)N1 (some centres undefined) ?
Output line: 1

Input line: Recorded call for `CCN(CC)CCOc1ccc(/C(=C(/C)c2ccccc2)c2ccc(OC(C)=O)cc2)cc1` ?
Output line: 0

Input line: Recorded call for `COc1cc(/C=C/C(=O)c2cccc(-n3cc(-c4cc(OC)c(OC)c(OC)c4)[nH]c3=O)c2)cc(OC)c1OC` ?
Output line: 0

Input line: Recorded call for CCCCCCCCCCCCNC(=O)[C@H]1CSC(c2cc(Br)cs2)N1 (some centres undefined) ?
Output line: 1

Input line: Recorded call for `O=c1[nH]c(NCc2ccccc2)nc2nc(Nc3ccc(NC(=S)Nc4ccccc4)cc3)nc(-c3ccc(O)cc3O)c12` ?
Output line: 0

Input line: Recorded call for Clc1ccc2c(NC3CCC(NC4CCCCC4)CC3)ccnc2c1 (centres undefined) ?
Output line: 0

Input line: Recorded call for `ClC(Cl)c1nc(-c2cccnc2)n2nc(-c3ccccc3)cc2n1` ?
Output line: 1

Input line: Recorded call for `O=S(=O)(NCCNc1nccc(-c2c(-c3ccc(F)cc3)nc3sccn23)n1)c1ccc(F)cc1` ?
Output line: 0

Input line: Recorded call for `COc1ccc(-c2nc3sc(-c4cc(OC)c(OC)c(OC)c4)nn3c2/C=C2/C(=O)Nc3ccc(F)cc32)cc1` ?
Output line: 1

Input line: Recorded call for CC12CCCC(CC(=O)c3[nH]c4ccccc4c31)C2 (centres undefined) ?
Output line: 0

Input line: Recorded call for Cc1[nH]c2ccc(F)cc2c1CCNC(=O)C1CCN(C(=O)c2ccccc2)C1 (centres undefined) ?
Output line: 0

Input line: Recorded call for `CCC1=CCC[C@@]2(C)CCC[C@@]3(C)CCCC(C)(C)[C@]1([O-])[O+]32` ?
Output line: 0

Input line: Recorded call for `COc1ccc(NC(=O)CSc2nc(-c3ccc(OC)c(OC)c3)cc(-c3cc(OC)c(OC)c(OC)c3)n2)cc1` ?
Output line: 0

Input line: Recorded call for `CCOc1cc2c(Cl)ncnc2c(OCC)c1OCC` ?
Output line: 0

Input line: Recorded call for `Oc1ccc(Cl)cc1-c1cc(-c2ccc(F)cc2)n[nH]1` ?
Output line: 0
